System: DU-145
Experiment: NCI tumour cell line growth inhibition, 48 h
The source made the active and inactive calls. Cut-off read from the data, not from the text of the source: active = GI50 up to about 1.1 µM and inactive = higher.
Your response should consist of one outcome taken from true = active, false = inactive

compound: O=c1[nH]c(=O)n(C2CC(O)C(CO)O2)cc1OCc1ccccc1 (stereo unspecified)
study-target: DU-145
assigned-category: false

Q: Record request — test call for CC(OP(=O)(O)O)C(N)C(=O)O (stereo unspecified)
Result: false

Q: Can you check C/C(=C\COc1ccc2ccc(=O)oc2c1)C1=CC(=O)C(C)(C)O1 next?
Result: false

---

Test system: PC-3
Assay: NCI tumour cell line growth inhibition, 48 h
Activity calls are given as the source filed them. Cut-off read from the data, not from the text of the source: active = GI50 up to about 1.1 µM and inactive = higher.
Respond using exactly one of the listed classes: active, inactive

compound: N#Cc1c(-c2ccccc2)cn(C(=O)c2ccccc2)c1N
assigned-category: inactive
//
compound: CC(=O)O[C@@]12CO[C@@H]1C[C@@H](O)[C@@]1(C)C(=O)[C@H](O)C3=C(C)[C@@H](OC(=O)[C@H](O)[C@@H](NC(=O)c4ccccc4)c4ccccc4)C[C@@](O)([C@@H](OC(=O)c4ccccc4)C12)C3(C)C (some centres undefined)
assigned-category: active

Q: Hi, do you know how O=C(CCCn1ccnc1[N+](=O)[O-])NCCn1ccnc1 came out in this test?
Result: inactive

Q: Please give the result for [N-]=[N+]=NC1C(O)C(CO)OC1n1ccc(N)nc1=O (centres undefined) too.
Result: inactive

---

Test system: Hs-578T
Assay: NCI tumour cell line growth inhibition, 48 h
The source made the active and inactive calls. No stated cut-off is given here; in the data, active = GI50 up to about 1.1 µM and inactive = higher.
The entries below are paired with their reported GI50.

Sample answers from the record:
compound: C[C@]12CCC(=O)C=C1CC[C@@H]1[C@@H]2CC[C@]2(C)C(=O)/C(=C/c3ccc([N+](=O)[O-])cc3)C[C@@H]12
study-target: Hs-578T
GI50: > 100 µM (inactive)

compound: COc1ccc2c(-c3ccc(O)cc3)c(Oc3ccccc3)c(=O)oc2c1
study-target: Hs-578T
GI50: > 50 µM (inactive)

compound: C1=CC2(C=CC13O[C@H](C1CCCCC1)[C@@H](C1CCCCC1)O3)O[C@H](C1CCCCC1)[C@@H](C1CCCCC1)O2
study-target: Hs-578T
GI50: > 50 µM (inactive)

compound: COC1=NC(NC2OCC(O)C(O)C2O)=C(NC(C)=O)CN1C (stereo not given)
study-target: Hs-578T
GI50: > 100 µM (inactive)

Q: Reported GI50, compound CCN(CC)CCN1CCN=c2c3cc(OC)ccc3n3cnc4ccc1c2c43 : ____
Result: 1.63 µM (inactive)

Q: What do you get for COC(=O)CCC1=NCC(C)(C)O1 ?
Result: > 10 µM (inactive)

Q: Next up: O=C(NC12CC3CC(CC(C3)C1)C2)n1cnc2c(Cl)ncnc21
Result: 32.3 µM (inactive)

Q: And for O=C1CCCc2c1c1c(n2Cc2ccccc2)-c2ccccc2C1=O ?
Result: 28.7 µM (inactive)

Q: Same question for Cc1cn(S(=O)(=O)c2ccccc2)c2c(OCc3ccccc3)cc([N+](=O)[O-])cc12 please.
Result: 26 µM (inactive)

Q: Then COC1(c2ccccc2)N=C(S)NN=C1c1ccccc1 (stereo not given) ?
Result: 42.4 µM (inactive)

---

Test system: SW-620
Test: NCI tumour cell line growth inhibition, 48 h
The source made the active and inactive calls. Rule as the data show it: active = GI50 up to about 1.1 µM and inactive = higher.
Your response should consist of one outcome taken from 1 for active, -1 for inactive

Here are 3 compounds together with their reported answers.
compound: S=C1c2cc(Cl)ccc2N=C(NC2CCCC2)C2CSCN12 (stereo not given)
assigned-category: -1
--
compound: O=C1NC(=O)C(c2c[nH]c3ccccc23)=C1c1cn(C(c2ccccc2)(c2ccccc2)c2ccccc2)cn1
assigned-category: -1
--
compound: NC(=O)c1nc(-c2ccc(Cl)c(Cl)c2)nc2ccccc12
assigned-category: -1

Q: Please state the recorded outcome for this compound: C=C1C(=O)O[C@@H]2C[C@@H](C)[C@@H]3[C@@H](OC4OC(COC(C)=O)C(O)C(O)C4O)CC(=O)[C@@]3(C)C[C@H]12 (stereo not given in full)
Result: 1

Q: CN(/N=C\c1ccnc2ccccc12)c1ccccc1 ?
Result: -1
